Cited source for all entries: PubChem BioAssay (NCI)

tested on: K-562 leukemia; assay: NCI-60 one-dose screen, 48 h (100 = growth as untreated, 0 = no growth, -100 = all killed); settings: 10 µM
About 83,000 compounds went through this panel and 20% of them were active in at least one assay; those are over-represented in the sample as a whole.
quantity: growth (%)

INSERT INTO measurements (compound, units_of_measure, test_result) VALUES
  ('O=C(COc1ccc(Cl)cc1Cl)Oc1coc(CSc2nc3ccccc3s2)cc1=O', '%', 83),
  ('CC(C)C[C@H](NC(=O)Cn1ccc(Nc2ccccc2)cc1=O)B(O)O', '%', 39.1),
  ('O=C(CCl)N1c2ccccc2Sc2ccc3ccccc3c21', '%', -0.331),
  ('CCOC(=O)c1ccc(NC(=O)Nc2nncs2)cc1', '%', 7.79),
  ('CCCCn1c(=O)[nH]c(N)c(C(c2ccc(Cl)cc2)c2c(N)[nH]c(=O)n(CCCC)c2=O)c1=O', '%', 28.7),
  ('CC1(C)CNC(=O)N1', '%', 98.1),
  ('O=C(N/N=C/c1ccccc1O)c1ccccc1', '%', 15.8),
  ('O=c1[nH]c(=O)n(C2C[C@@H](O)[C@@H](CO)O2)cc1F (stereo partly specified)', '%', 9.63),
  ('COc1cc(-c2nc(-c3nnc(-c4cccnc4)o3)c3ccccn23)cc(OC)c1OC', '%', 95.4),
  ('COc1ccc(C2=NNC(c3sc(Cl)nc3Cl)C2)cc1 (stereo unspecified)', '%', 7.31),
  ('C[N+]1=C(/C=C/c2ccc(I)cc2)C(C)(C)c2ccccc21', '%', 109);

----------
system: SF-268 CNS; assay: NCI-60 one-dose screen, 48 h (100 = growth as untreated, 0 = no growth, -100 = all killed); conditions: 10 µM
About 83,000 compounds went through this panel and 20% of them were active in at least one assay; those are over-represented in the sample as a whole. The source made the active and inactive calls. How the source made its calls: active means growth percent below 10; inactive means the rest.
quantity: growth

INSERT INTO assay_data (molecule, test_result) VALUES
  ('C=CCc1cc(Nc2c3ccc(Cl)cc3nc3ccc(OC)cc23)cc(CN(CC)CC)c1O', '23% (inactive)'),
  ('COc1cc([C@@H]2c3cc4c(cc3[C@H](SC(=N)N)[C@H]3COC(=O)[C@H]23)OCO4)cc(OC)c1OC', '30.3% (inactive)'),
  ('COc1ccc(Cn2cc3c(c2-c2ccccc2)CC(C)(C)c2cnoc2-3)cc1', '40.9% (inactive)'),
  ('COc1ccc(-n2nnc3c(sc4ccccc43)c2=O)cc1', '53.1% (inactive)'),
  ('COc1cc(-c2cc(/C=C/C(C)=O)[nH]n2)cc(OC)c1OC', '82.4% (inactive)'),
  ('Cn1cnc([N+](=O)[O-])c1/C=C1\Oc2ccc(Cl)cc2C1=O', '86.5% (inactive)'),
  ('CCCCC(CC#N)(CCC)CCC', '101% (inactive)'),
  ('C=CCN1C(=O)/C(=C\c2ccc3c(c2)CCC3)SC1=S', '102% (inactive)'),
  ('COc1ccc(-c2n/c(=C\c3c(O)[nH]c4ccccc34)cc3c2=Nc2ccccc2-3)cc1', '5.04% (active)'),
  ('COc1cccc(C(=O)N(c2ccc(F)c(F)c2)C(C(=O)NC(C)(C)C)c2cc3c(C)cc(C)cc3nc2Cl)c1 (stereo not given)', '64.7% (inactive)');
